# credit: patent US20230416232A1

target: EGFR (A767_dupASV) expressing Ba/F3 stable cell line (Homo sapiens, UniProt P00533, DUP767-769, cells depend on it); assay: Cellular proliferation (Alamar Blue) assay, EGFR (A767_dupASV) Ba/F3; format: cell-based; conditions: 72 hr, read-out: A767 IC50
Sequence (P00533 with tags, fused parts or gaps DUP767-769): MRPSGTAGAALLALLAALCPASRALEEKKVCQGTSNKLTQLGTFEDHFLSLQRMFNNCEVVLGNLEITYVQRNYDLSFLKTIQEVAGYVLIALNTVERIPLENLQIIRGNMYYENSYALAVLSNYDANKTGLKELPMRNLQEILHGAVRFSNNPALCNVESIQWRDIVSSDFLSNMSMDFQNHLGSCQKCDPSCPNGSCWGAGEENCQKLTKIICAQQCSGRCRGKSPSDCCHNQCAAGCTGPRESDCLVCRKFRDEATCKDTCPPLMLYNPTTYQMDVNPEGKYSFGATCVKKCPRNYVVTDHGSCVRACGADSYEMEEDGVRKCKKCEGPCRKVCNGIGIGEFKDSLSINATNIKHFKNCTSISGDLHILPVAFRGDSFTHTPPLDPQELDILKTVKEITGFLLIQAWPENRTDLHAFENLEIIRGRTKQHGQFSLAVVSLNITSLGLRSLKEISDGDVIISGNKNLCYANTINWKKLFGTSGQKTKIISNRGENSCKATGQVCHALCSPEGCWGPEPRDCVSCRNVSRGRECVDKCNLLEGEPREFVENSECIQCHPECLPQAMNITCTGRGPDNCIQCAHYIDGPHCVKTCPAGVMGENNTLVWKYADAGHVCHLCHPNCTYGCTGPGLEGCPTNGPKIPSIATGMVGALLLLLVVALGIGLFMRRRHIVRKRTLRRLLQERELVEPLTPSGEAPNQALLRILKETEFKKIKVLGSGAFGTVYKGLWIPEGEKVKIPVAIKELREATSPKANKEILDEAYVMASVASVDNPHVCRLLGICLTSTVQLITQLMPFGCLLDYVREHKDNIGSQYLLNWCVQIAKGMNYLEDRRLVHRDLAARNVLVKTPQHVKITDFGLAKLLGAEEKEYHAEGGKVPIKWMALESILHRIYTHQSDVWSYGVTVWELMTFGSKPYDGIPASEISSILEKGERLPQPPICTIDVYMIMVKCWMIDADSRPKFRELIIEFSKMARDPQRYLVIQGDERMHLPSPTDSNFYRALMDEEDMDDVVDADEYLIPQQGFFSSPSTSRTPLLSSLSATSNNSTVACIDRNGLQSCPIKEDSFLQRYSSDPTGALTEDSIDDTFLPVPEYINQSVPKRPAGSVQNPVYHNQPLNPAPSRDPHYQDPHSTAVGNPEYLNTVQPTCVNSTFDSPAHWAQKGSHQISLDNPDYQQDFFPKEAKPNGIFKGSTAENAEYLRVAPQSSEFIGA
Parameter: log10 GI50 (log10 of the value in nM)
Kindly note that the scale is log10 and the underlying GI50 is in nM.

# Chemical String, Parameter, Observed Result
data = [
    ("C=CC(=O)Nc1ccc(F)c(Nc2nc(Nc3cnn(C)c3)ncc2-c2cc(F)c(Br)c(Cl)c2)c1", "log10 GI50", 1.70),
    ("C=CC(=O)Nc1ccc(F)c(Nc2nc(Nc3cnn(CCN(C)C)c3)ncc2-c2ccc(Cl)c(Cl)c2)c1", "log10 GI50", 2.41),
    ("C=CC(=O)Nc1ccc(F)c(Nc2nc(Nc3cnn(C)c3)ncc2-c2cc(C)cc(F)c2)c1", "log10 GI50", 2.02),
    ("C=CC(=O)Nc1ccc(F)c(Nc2nc(Nc3cnn(C)c3)ncc2-c2cc(OC)ccc2Cl)c1", "log10 GI50", 2.87),
    ("C=CC(=O)Nc1ccc(F)c(Nc2nc(Nc3cnn(CCO)c3)ncc2-c2ccc(F)c(Cl)c2)c1", "log10 GI50", 1.90),
    ("C=CC(=O)Nc1ccc(F)c(Nc2nc(Nc3cnn(C)c3)ncc2-c2ccc(N3CCOCC3)c(F)c2)c1", "log10 GI50", 1.86),
]

Consider the additional compound presented here.
Query :: Need log10 GI50 of C=CC(=O)Nc1ccc(F)c(Nc2nc(Nc3cnn(C)c3)ncc2-c2ccc(Br)c(Cl)c2)c1 , thanks.
Result :: 1.94
